- Test system: Staphylococcus aureus
- Assay name: Antimicrobial activity against clinical isolate Staphylococcus aureus Smu21 assessed as inhibition of growth measured after 20 to 24 hrs incubation by CLSI method
- Assay type: functional
- Experimental setup: time 20-24 hrs
Property measured: MIC (µg/mL)
Answers are plain numbers, in µg/mL.

Solved cases below.
O=C(O)c1ccc(-n2cc(CNc3cc(Cl)c(F)c(Cl)c3)c(-c3ccc(C(F)(F)F)cc3)n2)cc1 | 2
O=C(O)c1ccc(-n2cc(CNc3ccc(Cl)c(C(F)(F)F)c3)c(-c3cccc(F)c3)n2)cc1 | 4
O=C(O)c1ccc(-n2cc(CNc3cc(Br)cc(C(F)(F)F)c3)c(-c3ccc(F)c(F)c3)n2)cc1 | 2
O=C(O)c1ccc(-n2cc(CNc3cc(Cl)cc(Cl)c3)c(-c3ccc(C(F)(F)F)cc3)n2)cc1 | 2

For the compound `O=C(O)c1ccc(-n2cc(CNc3ccc(Br)c(C(F)(F)F)c3)c(-c3cccc(F)c3)n2)cc1` , the measured MIC on Staphylococcus aureus was 4

----------
- System: Staphylococcus aureus
- Assay name: Antimicrobial activity against Staphylococcus aureus ATCC 25923 assessed as inhibition of visible growth measured after 20 to 24 hrs incubation by CLSI method
- Format: functional
- Experimental setup: time 20-24 hrs
Please provide measured MIC for the entries that follow.
Answers are plain numbers, in µg/mL.

Solved cases below.
O=C(O)c1ccc(-n2cc(CNc3ccc(F)c(Cl)c3)c(-c3ccc(F)c(F)c3)n2)cc1 | 8
O=C(O)c1ccc(-n2cc(CNc3cc(F)cc(C(F)(F)F)c3)c(-c3cccc(F)c3)n2)cc1 | 2
O=C(O)c1ccc(-n2cc(CNc3cc(Br)cc(C(F)(F)F)c3)c(-c3ccc(F)cc3)n2)cc1 | 2
O=C(O)c1ccc(-n2cc(CNc3cc(Br)cc(C(F)(F)F)c3)c(-c3cccc(F)c3)n2)cc1 | 2
O=C(O)c1ccc(-n2cc(CNc3cc(F)cc(C(F)(F)F)c3)c(-c3ccc(F)c(F)c3)n2)cc1 | 2

Parameter requested: MIC. Apply to each item below.
1. O=C(O)c1ccc(-n2cc(CNc3cccc(F)c3)c(-c3ccc(F)cc3)n2)cc1
2. O=C(O)c1ccc(-n2cc(CNc3ccc(Cl)c(C(F)(F)F)c3)c(-c3ccc(F)c(F)c3)n2)cc1
3. O=C(O)c1ccc(-n2cc(CNc3ccc(Oc4ccccc4)cc3)c(-c3ccc(F)c(F)c3)n2)cc1
4. COc1ccc(NCc2cn(-c3ccc(C(=O)O)cc3)nc2-c2ccc(F)cc2)cc1C(F)(F)F

Solution:
16
1
1
16

----------
- System: Enterococcus faecium
- Assay name: Antimicrobial activity against antibiotic-resistant Enterococcus faecium ATCC 700221 assessed as inhibition of visible growth measured after 20 to 24 hrs incubation by CLSI method
- Assay type: functional
- Experimental setup: time 20-24 hrs
Please provide measured MIC for the entries that follow.
Numbers only, in µg/mL.

Solved cases below.
O=C(O)c1ccc(-n2cc(CNc3cc(Br)cc(C(F)(F)F)c3)c(-c3ccc(F)cc3)n2)cc1 | 2
O=C(O)c1ccc(-n2cc(CNc3cc(Br)cc(C(F)(F)F)c3)c(-c3cccc(F)c3)n2)cc1 | 2

Parameter requested: MIC. Apply to each item below.
1. CC(C)c1ccc(NCc2cn(-c3ccc(C(=O)O)cc3)nc2-c2ccc(F)cc2)cc1
2. O=C(O)c1ccc(-n2cc(CNc3ccc(Cl)c(Cl)c3)c(-c3cccc(F)c3)n2)cc1

Solution:
4
4

Parameter requested: MIC. Apply to each item below.
1. O=C(O)c1ccc(-n2cc(CNc3ccc(Oc4ccccc4)cc3)c(-c3ccc(F)cc3)n2)cc1
2. O=C(O)c1ccc(-n2cc(CNc3ccc(Br)c(Cl)c3)c(-c3ccc(F)c(F)c3)n2)cc1
3. Cc1cc(NCc2cn(-c3ccc(C(=O)O)cc3)nc2-c2ccc(F)cc2)ccc1Br
4. O=C(O)c1ccc(-n2cc(CNc3cccc(C(F)(F)F)c3)c(-c3ccc(F)cc3)n2)cc1
5. O=C(O)c1ccc(-n2cc(CNc3ccc(Cl)c(C(F)(F)F)c3)c(-c3ccc(F)cc3)n2)cc1
6. O=C(O)c1ccc(-n2cc(CNc3cccc(C(F)(F)F)c3)c(-c3ccc(F)c(F)c3)n2)cc1
7. O=C(O)c1ccc(-n2cc(CNc3cc(C(F)(F)F)cc(C(F)(F)F)c3)c(-c3cccc(F)c3)n2)cc1
8. O=C(O)c1ccc(-n2cc(CNc3cc(F)c(F)c(F)c3)c(-c3cccc(F)c3)n2)cc1

Solution:
4
4
8
8
2
4
2
16

Parameter requested: MIC. Apply to each item below.
1. O=C(O)c1ccc(-n2cc(CNc3ccc(C(F)(F)F)cc3)c(-c3ccc(F)c(F)c3)n2)cc1
2. O=C(O)c1ccc(-n2cc(CNc3cc(Cl)cc(C(F)(F)F)c3)c(-c3ccc(F)c(F)c3)n2)cc1
3. O=C(O)c1ccc(-n2cc(CNc3ccc(Br)c(C(F)(F)F)c3)c(-c3ccc(F)cc3)n2)cc1
4. O=C(O)c1ccc(-n2cc(CNc3ccc(Cl)c(C(F)(F)F)c3)c(-c3ccc(F)c(F)c3)n2)cc1

Solution:
1. 8
2. 2
3. 2
4. 2
